# measurement notes: Antagonist activity at CRF1 receptor expressed in mouse AtT20 cells assessed as inhibition of sauvagine-stimulated cAMP accumulation
measured quantity: Ki (µM)

> print(dat)
                           molecular.string  measurement.unit  observed.value
1  CCCN(CCC)c1c(C)nc(-c2c(C)cc(C)cc2OC)c2ccccc12                µM           0.012
